- EXPERIMENTAL PROTOCOL: Clearance in rat after 1 mg/kg i.v. dosage; n=3
- DETAILS: in vivo, iv
# clearance values compiled below
// return the numeric value with its unit appended

>  <COMPOUND>
CCN(C(=O)Cc1ccc(S(C)(=O)=O)cc1)C1CCN(CCC(c2ccccc2)c2ccc(Cl)cc2)CC1 (stereo not drawn)

>  <RESULT>
46 mL/min/kg

$$$$
>  <COMPOUND>
CCN(C(=O)Cc1ccc(S(C)(=O)=O)cc1)C1CCN(CCC(c2ccc(F)cc2)c2ccc(F)cc2)CC1

>  <RESULT>
10 mL/min/kg

$$$$

Query: Would you mind telling me what clearance value was observed for C=CCN(C(=O)Cc1ccc(S(C)(=O)=O)cc1)C1CCN(CCC(c2ccccc2)c2ccccc2)CC1 ?
Reply: 54 mL/min/kg

---

- STUDY SYSTEM: C-C chemokine receptor type 5 (Homo sapiens)
- Sequence (P51681 whole entry): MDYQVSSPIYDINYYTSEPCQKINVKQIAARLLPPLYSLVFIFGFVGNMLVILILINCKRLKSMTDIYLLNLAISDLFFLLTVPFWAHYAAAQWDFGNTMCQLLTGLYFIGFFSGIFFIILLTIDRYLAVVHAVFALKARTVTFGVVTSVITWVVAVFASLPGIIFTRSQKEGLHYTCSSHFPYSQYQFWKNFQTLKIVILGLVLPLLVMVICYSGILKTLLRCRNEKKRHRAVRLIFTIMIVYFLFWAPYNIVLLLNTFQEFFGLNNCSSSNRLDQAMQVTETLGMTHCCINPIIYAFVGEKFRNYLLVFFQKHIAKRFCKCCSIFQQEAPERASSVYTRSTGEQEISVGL
- EXPERIMENTAL PROTOCOL: Displacement of [125I]-MIP-1 alpha from human C-C chemokine receptor type 5 expressed in CHO cells
- Type: cell-based
RECORDED METRIC: pIC50
As a rule, pIC50 stands for the negative log10 of the concentration, concentration in M.

The following compounds have reported results that may help.
>  <COMPOUND>
CCN(C(=O)Cc1ccc(S(C)(=O)=O)cc1)C1CCN(CCC(c2ccc(NC(=O)OC(C)(C)C)cc2)c2cccc(F)c2)CC1 (stereo unspecified)

>  <STUDY SYSTEM>
C-C chemokine receptor type 5 (Homo sapiens)

>  <pIC50>
7.05

$$$$
>  <COMPOUND>
CCN(C(=O)Cc1ccc(S(C)(=O)=O)cc1)C1CCN(CCC(c2ccc(NC(C)=O)cc2)c2cccc(F)c2)CC1 (stereo unspecified)

>  <STUDY SYSTEM>
C-C chemokine receptor type 5 (Homo sapiens)

>  <pIC50>
8.10

$$$$
>  <COMPOUND>
CCN(C(=O)Cc1ccc(S(C)(=O)=O)cc1)C1CCN(CCC(c2ccccc2)c2ccc(-c3ccccc3)cc2)CC1 (stereo unspecified)

>  <STUDY SYSTEM>
C-C chemokine receptor type 5 (Homo sapiens)

>  <pIC50>
7.07

$$$$
>  <COMPOUND>
CCN(C(=O)Cc1ccc(S(C)(=O)=O)cc1)C1CCN(CCC(c2ccccc2)c2ccc(N)cc2)CC1 (stereo unspecified)

>  <STUDY SYSTEM>
C-C chemokine receptor type 5 (Homo sapiens)

>  <pIC50>
6.70

$$$$

Query: Return reported pIC50; argument: CCN(C(=O)Cc1ccc(S(C)(=O)=O)cc1)C1CCN(CCC(c2ccccc2)c2ccc(C)cc2)CC1 (stereo unspecified)
Reply: 7.55

Query: Quick one: CCN(C(=O)Cc1ccc(S(C)(=O)=O)cc1)C1CCN(CCC(c2ccccc2)c2ccc(NC(=O)C(C)(C)C)cc2)CC1 (stereo unspecified)
Reply: 7.66

Query: Another compound to look at: CCN(C(=O)Cc1ccc(S(C)(=O)=O)cc1)C1CCN(CCC(c2ccccc2)c2ccc(NS(C)(=O)=O)cc2)CC1 (stereo unspecified)
Reply: 7.74

Query: Next record, please: CCN(C(=O)Cc1ccc(S(C)(=O)=O)cc1)C1CCN(CCC(c2ccccc2)c2ccc(NC(C)=O)cc2)CC1 (stereo unspecified)
Reply: 7.59

Query: Entry CCN(C(=O)Cc1ccc(S(C)(=O)=O)cc1)C1CCN(CCC(c2ccccc2)c2ccc(F)cc2)CC1 (stereo unspecified) please
Reply: 6.51

Query: Also CCN(C(=O)Cc1ccc(S(C)(=O)=O)cc1)C1CCN(CCC(c2ccccc2)c2ccc(NC(=O)Cc3ccccc3)cc2)CC1 (stereo unspecified) ?
Reply: 8.23

Query: Moving on to CCN(C(=O)Cc1ccc(S(C)(=O)=O)cc1)C1CCN(CCC(c2ccccc2)c2ccc(OC)cc2)CC1 (stereo unspecified)
Reply: 8.20

Query: Would you kindly repeat that for C=CCN(C(=O)Cc1ccc(S(C)(=O)=O)cc1)C1CCN(CCC(c2ccccc2)c2ccccc2)CC1 ?
Reply: 7.89

Query: Next compound: CCN(C(=O)Cc1ccc(S(C)(=O)=O)cc1)C1CCN(CCC(c2ccccc2)c2ccc(NC(=O)c3ccccc3)cc2)CC1 (stereo unspecified)
Reply: 6.89

Query: Query CCN(C(=O)Cc1ccc(S(C)(=O)=O)cc1)C1CCN(CCC(c2ccccc2)c2cccc(Cl)c2)CC1 (stereo unspecified) next
Reply: 7.24

Query: Next record, please: CCN(C(=O)Cc1ccc(S(C)(=O)=O)cc1)C1CCN(CCC(c2ccc(Cl)cc2)c2ccc(Cl)cc2)CC1
Reply: 6.12
